# measured_on: Kv1.5 channels from humans (Homo sapiens, UniProt P22460)
# Construct: expressed in transfected cells; host or cells: Xenopus laevis oocytes injected with in vitro synthesized RNA
# Sequence (P22460 whole entry): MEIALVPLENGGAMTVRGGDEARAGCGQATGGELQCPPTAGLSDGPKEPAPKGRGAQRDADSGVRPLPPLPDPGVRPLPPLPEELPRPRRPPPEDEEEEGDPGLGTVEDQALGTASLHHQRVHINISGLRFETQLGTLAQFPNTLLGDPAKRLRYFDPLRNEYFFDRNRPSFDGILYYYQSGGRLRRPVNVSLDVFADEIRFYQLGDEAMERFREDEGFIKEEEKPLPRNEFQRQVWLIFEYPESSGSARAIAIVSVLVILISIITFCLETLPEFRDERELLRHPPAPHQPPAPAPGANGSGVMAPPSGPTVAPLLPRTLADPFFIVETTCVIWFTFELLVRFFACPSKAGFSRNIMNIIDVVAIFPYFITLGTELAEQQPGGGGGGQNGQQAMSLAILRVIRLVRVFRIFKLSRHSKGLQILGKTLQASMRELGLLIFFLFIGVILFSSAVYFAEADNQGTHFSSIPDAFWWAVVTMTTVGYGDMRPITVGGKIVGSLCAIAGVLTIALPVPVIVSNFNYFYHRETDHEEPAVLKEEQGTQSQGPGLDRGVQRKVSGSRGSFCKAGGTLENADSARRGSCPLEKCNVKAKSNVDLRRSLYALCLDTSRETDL
# assay_procedure: Kv1.5 currents in Xenopus oocytes, two-microelectrode voltage clamp
# Format: cell-based
quantity_kind: pIC50
Formally, pIC50 is defined as -log10 of the concentration c, with c in mol/L.

In the examples that follow, each entry is paired with its recorded pIC50.
Ask: Value lookup for pIC50; key = O=C(Cc1ccc(F)cc1)NCc1ccccc1-c1ccccc1C(=O)Nc1ccc(F)cc1
Reply: 5.52

Ask: // next record CC(OC(=O)NCc1ccccc1-c1ccccc1C(=O)NCCc1ccccn1)c1c(F)cccc1F (stereo not drawn)
Reply: 5.85

Ask: Then C[C@@H](NC(=O)NCc1ccccc1-c1ccccc1C(=O)NCCc1ccccn1)c1ccccc1 ?
Reply: 5.14

Ask: Consider next the molecule COc1ccc(CC(=O)NCc2cccc(C)c2-c2c(C)cccc2C(=O)NCCC(C)C)cc1 in the same way.
Reply: 5.34

Ask: Ok, now CC(C)(C)OC(=O)NCc1ccccc1-c1ccccc1C(=O)N[C@@H](CO)Cc1ccccc1
Reply: 5.28

Ask: Same for COC(=O)[C@H](Cc1ccccc1)NC(=O)c1ccccc1-c1ccccc1CNC(=O)OCc1ccccc1
Reply: 6.05

Ask: Same lookup for C[C@H](O)CNC(=O)c1ccccc1-c1ccccc1CNC(=O)O[C@@H](C)c1ccccc1 , please.
Reply: 6.40

Ask: Now this one: CCN(Cc1ccncc1)C(=O)c1ccccc1-c1ccccc1CNC(=O)OCc1ccccc1
Reply: 5.14

Others:
Ask: Item COCCNC(=O)c1ccccc1-c1ccccc1CNC(=O)Nc1ccc(Cl)cc1 has what recorded pIC50?
Reply: 5.11

* * *

# measured_on: Kv1.5 channels from humans (Homo sapiens, UniProt P22460)
# Construct: expressed in transfected cells; host or cells: Xenopus laevis oocytes injected with in vitro synthesized RNA
# assay_procedure: Kv1.5 currents in Xenopus oocytes, two-microelectrode voltage clamp
# Assay type: cell-based
quantity_kind: IC50 (nM)
Record the value in nM, omitting the unit from your answer.

Ask: Field request: IC50 | item: O=C(NCc1ccccc1-c1ccccc1C(=O)NCCc1cccnc1)OCc1ccccc1
Reply: 800

More entries:
Ask: Entry under review: COc1ccc(CC(=O)NCc2ccccc2-c2ccccc2C(=O)NC2CCCC2)cc1 . Reported IC50?
Reply: 1200

Ask: Subsequent entry: COC(=O)C(Cc1ccccn1)NC(=O)c1ccccc1-c1ccccc1CNC(=O)OCc1ccccc1 (centres unmarked)
Reply: 1600

Ask: Here is the next compound: O=C(NCc1ccccc1-c1ccccc1C(=O)NCCc1ccccn1)OCCCC(F)(F)F
Reply: 1700

Ask: Try this compound too: COc1ccc(CCC(=O)NCc2ccccc2-c2ccccc2C(=O)NCc2ccc(F)cc2F)cc1
Reply: 800

* * *

quantity_kind: melting point (°C)
# unit: °C | format: bare number

Examples with answers:
Ask: // query melting point value for entry O=C(NCCc1ccccn1)c1ccccc1-c1ccccc1CNS(=O)(=O)c1cccc(F)c1
Reply: 123

Ask: And then O=C(NCCc1ccccc1)c1ccccc1-c1ccccc1CNS(=O)(=O)c1cccc(F)c1 , what is it?
Reply: 153

Ask: Note, next up: O=C(NCc1ccccc1)c1ccccc1-c1ccccc1CNS(=O)(=O)c1cccc([N+](=O)[O-])c1
Reply: 175

Ask: Now give it for O=C(NCc1ccccc1)c1ccccc1-c1ccccc1CNS(=O)(=O)c1ccccc1 too.
Reply: 162

Ask: Can you check CC(C)CCNC(=O)c1ccccc1-c1ccccc1CNC(=O)OCc1ccccc1 next?
Reply: 112

Ask: # iterate: O=C(NCc1ccccc1)c1ccccc1-c1ccccc1CNS(=O)(=O)c1cccc(C(F)(F)F)c1
Reply: 126

Ask: Please do the same for O=C(NCc1ccccc1-c1ccccc1C(=O)NCCc1ccccn1)Nc1ccccc1 as well.
Reply: 99

Ask: Entry CC(=O)c1cccc(S(=O)(=O)NCc2ccccc2-c2ccccc2C(=O)NCc2ccccc2)c1 please
Reply: 182

Ask: Do the same for O=C(NCc1ccccc1-c1ccccc1C(=O)NCCc1ccccn1)c1ccccc1 please
Reply: 135

Ask: And O=C(NCCc1ccccc1)c1ccccc1-c1ccccc1CNS(=O)(=O)c1ccccc1 ?
Reply: 154

Continuing:
Ask: What value of melting point has been reported for the following molecule? O=C(NCCc1ccccn1)c1ccccc1-c1ccccc1CNS(=O)(=O)c1ccccc1
Reply: 131

Ask: Try this molecule next: CC(C)CCNC(=O)c1ccccc1-c1ccccc1CNS(=O)(=O)c1ccccc1
Reply: 127

Ask: What about O=C(NCCc1ccccn1)c1ccccc1-c1ccccc1CNS(=O)(=O)c1ccc(F)cc1 ?
Reply: 130
